System: RPMI-8226 leukemia
Test: NCI tumour cell line growth inhibition, 48 h; in the data active = GI50 below about 0.43 µM; inactive = the rest
Use one of these outcomes when replying: active, inactive

O=C(Oc1ccc(Cl)cc1)c1ccccc1Nc1ccnc(C(F)(F)F)c1 ... inactive

INPUT: Hi team, can someone confirm the assay call for Cc1cc(I)cc(CN(CCCN(C)C)C(C)C)c1O ?
OUTPUT: inactive

INPUT: Hi team, can someone confirm the assay call for CN(C)c1cc(NN=C(c2ccc(O)cc2)c2ccc(O)cc2)c([N+](=O)[O-])cc1[N+](=O)[O-] ?
OUTPUT: inactive

----------
Tested on: UACC-257 melanoma
Assay: NCI tumour cell line growth inhibition, 48 h
QUANTITY KIND: TGI (µM)
The reply should be a number in µM, with the unit left off.

These recorded examples may help you get a feel for the data.
CCCCCCCCCCCCC(O)c1ccc(C#CCCCCCCCCCO)o1 (stereo not drawn) ... 51
O=c1ccc2ccccc2cc1[O-].O=c1ccc2ccccc2cc1[O-].[O]=[U+2]=[O] ... 44.3
Cc1nnc(NC(=O)c2nc(S(=O)(=O)Cc3ccc(F)cc3)ncc2Cl)s1 ... 7.61

INPUT: # query: TGI of entry Cc1ccc(/C=C/C(=O)c2cccc3ccccc23)cc1
OUTPUT: 33.7

INPUT: # query: TGI of entry O=C(Oc1ccc(Cl)cc1)c1ccccc1Nc1ccnc(C(F)(F)F)c1
OUTPUT: 24.4

INPUT: # query: TGI of entry COCCOc1ccc(-c2nc3ccc(-c4nc5ccc(N6CCN(C)CC6)cc5[nH]4)cc3[nH]2)cc1
OUTPUT: 5.92

----------
Test system: LXFL 529 NSCLC
Test: NCI tumour cell line growth inhibition, 48 h
Where a SMILES comes first, the peptide text is derived from it. [ ]: non-standard residue; d: D form. The star is where a group is joined. ξ: configuration not given here. X3 = COc1ccc(C(N*)c2ccc(OC)cc2)cc1; NMeF = CN[C@@H](Cc1ccccc1)C(=O)O; NMeD = CN[C@@H](CC(=O)O)C(=O)O; NMeV = CN[C@H](C(=O)O)C(C)C; ξNMeV = CNC(C(=O)O)C(C)C; Boc = CC(C)(C)OC(=O)*; ξNMeA = CNC(C)C(=O)O; ξV = CC(C)C(N)C(=O)O
Consider the following compounds and their measured TGI readings.
The reply should be a number in µM, with the unit left off.

O=C(/C=C/c1ccc([N+](=O)[O-])cc1)c1ccc(NCc2nc3ccccc3[nH]2)cc1 ... 8.61
COc1ccc(C(NC(=O)C[C@@H](C(=O)N(C)C(C)C(=O)O)N(C)C(=O)[C@@H]2CCCN2C(=O)[C@H](C(C)C)N(C)C(=O)C(C(C)C)N(C)C(=O)[C@H](Cc2ccccc2)N(C)C(=O)C(NC(=O)OC(C)(C)C)C(C)C)c2ccc(OC)cc2)cc1 (stereo partly specified) (Boc-[ξV][NMeF][ξNMeV][NMeV]P[NMeD](X3)[ξNMeA]-OH) ... 27.9
Cc1ccc(/C=C/C(=O)c2cccc3ccccc23)cc1 ... 25.3
O=c1ccc2ccccc2cc1[O-].O=c1ccc2ccccc2cc1[O-].[O]=[U+2]=[O] ... 51.6
Cc1ccc(/C=C/C(=O)CCN(C)C)cc1 ... 34.2
CCCCCC[C@@H]1CCC2C(CO)[C@@H](O)CC[C@@H]2C1 (stereo partly specified) ... 32.6

Continue with the compound presented below.
INPUT: # query: TGI of entry CN(C)CC1CC/C(=C\c2ccc(O)cc2)C1=O (stereo unspecified)
OUTPUT: 3.45

----------
Tested on: NCI-H522 lung
Test: NCI tumour cell line growth inhibition, 48 h
QUANTITY KIND: TGI

These recorded examples may help you get a feel for the data.
O=C1CN(c2cccc(Cl)c2)C(=O)CN1CCN1CC(=O)N(c2cccc(Cl)c2)CC1=O ... > 100 µM
COc1cccc(C2SC(N)=Nc3c2c(C)nn3C(=O)c2ccccc2O)c1 (stereo not drawn) ... > 10 µM
COc1ccc(-c2[nH]c3c4c(nc5c(c24)C(=O)CC(C)(C)C5)CC(C)(C)C3)cc1 ... > 100 µM
CCCCCCCCCCCCC(O)c1ccc(C#CCCCCCCCCCO)o1 (stereo not drawn) ... 45.5 µM
C/C(=C\CBr)CCC(Br)C(C)(C)Br (stereo not drawn) ... > 100 µM

INPUT: # query: TGI of entry S=c1sc2c(n1-c1ccccc1)NC=NC2S (stereo not drawn)
OUTPUT: > 100 µM

INPUT: # query: TGI of entry CCCCOC(=O)Nc1ccc(S(=O)(=O)Nc2ccccc2Cl)cc1
OUTPUT: 49.3 µM

INPUT: # query: TGI of entry Oc1ccccc1CNCc1nc2ccccc2[nH]1
OUTPUT: > 100 µM

----------
Tested on: 786-0 renal
Assay: NCI tumour cell line growth inhibition, 48 h
Consider the following compounds and their measured TGI readings.

These recorded examples may help you get a feel for the data.
c1ccc(Sc2ncnc3ccccc23)cc1 ... 34.5 µM
Nc1c(-c2ccc(Cl)c(Cl)c2)c2ccc([N+](=O)[O-])cc2c(=O)n1-c1nc2ccccc2s1 ... 19.6 µM
O=C(O)c1ccc2c(c1C(=O)O)C(=O)OC2(c1ccc(O)cc1)c1ccc(O)cc1 ... > 100 µM
O=c1ccc2ccccc2cc1[O-].O=c1ccc2ccccc2cc1[O-].[O]=[U+2]=[O] ... 40.8 µM
COC[C@H]1Cn2cc(-c3nc(Nc4ccnn4C)ncc3C)nc2C(=O)N1Cc1ccc(F)c(F)c1 ... > 100 µM

INPUT: # query: TGI of entry Cc1ccc(/C=C/C(=O)c2cccc3ccccc23)cc1
OUTPUT: 28.2 µM

INPUT: # query: TGI of entry CCOC(=O)N1CCN(Cc2cc(=O)n3ccc(C)cc3n2)CC1
OUTPUT: > 100 µM

----------
Tested on: HOP-62 NSCLC
Test: NCI tumour cell line growth inhibition, 48 h
QUANTITY KIND: TGI (µM)
The reply should be a number in µM, with the unit left off.

These recorded examples may help you get a feel for the data.
O=c1ccc2ccccc2cc1[O-].O=c1ccc2ccccc2cc1[O-].[O]=[U+2]=[O] ... 53.8
Cc1cc(-c2nc3ccc(F)cc3s2)ccc1NC(=O)[C@H](C)N ... 24.5
O=C(C1OC1c1ccc(Br)cc1O)C12CC3CC(CC(C3)C1)C2 (stereo unspecified) ... 67.9

INPUT: # query: TGI of entry CN(C)CCNS(=O)(=O)c1ccc(N)cc1
OUTPUT: 32.4

INPUT: # query: TGI of entry CCCCCCCCCCCCC(O)c1ccc(C#CCCCCCCCCCO)o1 (stereo unspecified)
OUTPUT: 35.5

INPUT: # query: TGI of entry COc1cccc(C(=O)NC(c2ccc(C)cc2)c2cc(Cl)c3cccnc3c2O)c1 (stereo unspecified)
OUTPUT: 9.58

INPUT: # query: TGI of entry Cc1ccccc1C(=N)c1ccccc1Cc1cccc2ccccc12
OUTPUT: 43.5

----------
System: MALME-3M melanoma
Experiment: NCI tumour cell line growth inhibition, 48 h
Please note: yes (1) applies when TGI is 30 µM or greater, and no (0) applies otherwise.

Use these answered entries as a reference point.
CCC(=O)NC(Nc1cc(C)on1)(C(F)(F)F)C(F)(F)F ... yes (1)
Nc1ncnc2c1[nH]c(=O)n2-c1ccccc1 ... yes (1)
Cc1oc2c(cc(O)c3cc(O)ccc32)c2cccc1-2 ... yes (1)
O=C(/C=C/c1ccc2c(c1)OCO2)c1ccc(O)cc1 ... no (0)
CCCCCC[C@@H]1CCC2C(CO)[C@@H](O)CC[C@@H]2C1 (some centres undefined) ... yes (1)
COc1cccc(C(=O)NC(c2ccc(C)cc2)c2cc(Cl)c3cccnc3c2O)c1 (centres undefined) ... no (0)
Cc1cccc(Cn2c3c(c4cc(O)ccc42)C(=O)c2ccccc2C3=O)c1 ... yes (1)
Cc1nnc(NC(=O)c2nc(S(=O)(=O)Cc3ccc(F)cc3)ncc2Cl)s1 ... no (0)

INPUT: Could you verify whether the entry CC(=O)CC(OC(C)=O)C1=CCC2C(CC1C)OC(=O)C2C (centres undefined) shows TGI of no less than 30 µM?
OUTPUT: yes (1)

INPUT: Could you verify whether the entry CCCOc1cc2ccccc2cc1C(=O)Nc1nc(N)c2c(ccc3nccc32)[nH]1 shows TGI of no less than 30 µM?
OUTPUT: no (0)

INPUT: Could you verify whether the entry COc1ncc(/C=C2\OC(=O)c3ccccc32)c(OC)n1 shows TGI of no less than 30 µM?
OUTPUT: yes (1)

INPUT: Could you verify whether the entry CCN(CC)C(=S)N/N=C/c1cc([N+](=O)[O-])ccc1O shows TGI of no less than 30 µM?
OUTPUT: no (0)

INPUT: Could you verify whether the entry Nc1c(-c2ccc(Cl)c(Cl)c2)c2ccc([N+](=O)[O-])cc2c(=O)n1-c1nc2ccccc2s1 shows TGI of no less than 30 µM?
OUTPUT: no (0)

Recorded values, source PubChem BioAssay (NCI).
